- Tested on: Caenorhabditis elegans N2
- protocolDescription: mean nematode size ln(EXT) after 48 h, plate-adjusted (DMSO control set to 6) (ln(EXT), control-adjusted); higher = larger nematodes / less growth inhibition
- conditionSummary: 0.5 µM; exposure time 48 h
Where a name gives a salt, the structure may show the parent alone.
endpointName: mean nematode size ln(EXT) (ln)
# answer = number (no unit)

Find the recorded mean nematode size ln(EXT) (ln) belonging to CCC(C)(c1ccc(O)cc1)c1ccc(O)cc1 and report it.
5.9

mean nematode size ln(EXT) (ln) lookup needed for CN(C)c1ccc(C(=C2C=CC(=[N+](C)C)C=C2)c2ccc(N(C)C)cc2)cc1 [Hexamethyl-p-rosaniline chloride] , thanks.
4.79

Entry O=C(O)C1=NN(c2ccc(S(=O)(=O)O)cc2)C(=O)C1N=Nc1ccc(S(=O)(=O)O)cc1 (stereo not given) has what mean nematode size ln(EXT) (ln)?
6.02

May I ask what mean nematode size ln(EXT) (ln) has been recorded for O=c1ccc2ccccc2o1 ?
5.93

What measured mean nematode size ln(EXT) (ln) goes with CCOc1ccc(C(C)(C)COCc2cccc(Oc3ccccc3)c2)cc1 ?
5.87

# lookup: mean nematode size ln(EXT) (ln) of O=c1[nH]cc(F)c(=O)[nH]1
5.8

For c1cc2ccc3cccc4ccc(c1)c2c34 , what is its reported mean nematode size ln(EXT) (ln)?
5.71

So what does the record say about mean nematode size ln(EXT) (ln) for CC1(C)C(=O)NC(=O)N1CO [1-(Hydroxymethyl)-5,5-dimethylhydantoin] ?
5.87

May I ask what mean nematode size ln(EXT) (ln) has been recorded for CCC(=O)C(CC(C)N(C)C)(c1ccccc1)c1ccccc1 (stereo not given) [Methadone Hydrochloride] ?
5.87

So what does the record say about mean nematode size ln(EXT) (ln) for CN(C)c1ccc(N=NS(=O)(=O)O)cc1 ?
5.95

###

For each of the compounds below, state its mean nematode size ln(EXT) (ln).
- Tested on: Caenorhabditis elegans N2
- protocolDescription: mean nematode size ln(EXT) after 48 h, plate-adjusted (DMSO control set to 6) (ln(EXT), control-adjusted); higher = larger nematodes / less growth inhibition
- conditionSummary: 200 µM; exposure time 48 h
Answer field: number only, no words.

Look at this compound and give its reported mean nematode size ln(EXT) (ln). CCCCCCCCCCCCCCCS(=O)(=O)Oc1ccccc1
3.65

So what does the record say about mean nematode size ln(EXT) (ln) for C#CCC1=C(C)C(OC(=O)C2C(C=C(C)C)C2(C)C)CC1=O (stereo not drawn) ?
4.41

Query: mean nematode size ln(EXT) (ln); subject: CCCCN(CCCC)SN(C)C(=O)Oc1cccc2c1OC(C)(C)C2
4

Which mean nematode size ln(EXT) (ln) value is on record for CC(C)c1cccc(C(C)C)c1 ?
5.46

Any idea what its mean nematode size ln(EXT) (ln) is? The compound is Cc1cc(N=Nc2ccccc2C)ccc1N
3.77

Give its mean nematode size ln(EXT) (ln) value. Item: O=C(Oc1ccc(Br)cc1)N1CCN2CCC1CC2 [4-bromophenyl 1,4-diazabicyclo[3.2.2]nonane-4-carboxylate]
5.33

Requested field: mean nematode size ln(EXT) (ln). Item: CCCCC(CC)CN1C(=O)C2C3C=CC(C3)C2C1=O (mixture of isomers)
4.3

Quick one: mean nematode size ln(EXT) (ln) of CC(=O)S[C@H](C(=O)N[C@H]1Cc2ccccc2[C@H]2CCC[C@@H](C(=O)O)N2C1=O)C(C)C ?
5.58

###

- Test system: Caenorhabditis elegans N2
- protocolDescription: mean nematode size ln(EXT) after 48 h, plate-adjusted (DMSO control set to 6) (ln(EXT), control-adjusted); higher = larger nematodes / less growth inhibition
- conditionSummary: 10 µM; exposure time 48 h
endpointName: mean nematode size ln(EXT) (ln)
Write the number on its own, no unit after it.

Query: mean nematode size ln(EXT) (ln); subject: OCCC(F)(F)C(F)(F)C(F)(F)C(F)(F)C(F)(F)C(F)(F)C(F)(F)C(F)(F)F [1,1,2,2-Tetrahydroperfluoro-1-decanol]
5.62

Given COC(=O)CCCCC(=O)OC [Dimethyl adipate] , state its recorded mean nematode size ln(EXT) (ln).
5.79

Data request, read-out mean nematode size ln(EXT) (ln), for Cc1cccc(Nc2cc(Cl)nc(SCC(=O)O)n2)c1C
5.97

Using the record for CCNc1nc(Cl)nc(NC(C)(C)C)n1 , report its mean nematode size ln(EXT) (ln).
5.95

Which value of mean nematode size ln(EXT) (ln) has been reported for c1ccc(OP(Oc2ccccc2)Oc2ccccc2)cc1 in the records?
5.81

Using the record for CCCCOC(=O)CCCCCCCCC(=O)OCCCC [Dibutyl sebacate] , report its mean nematode size ln(EXT) (ln).
5.68

Consider the compound CCCCCCCCOC(=O)c1cc(O)c(O)c(O)c1 [Octyl gallate] and give its measured mean nematode size ln(EXT) (ln).
5.88

Item under review: CC(Cc1ccc(OCC(=O)O)cc1)NCC(O)c1csc(C(F)(F)F)n1 (stereo not given) . Reported mean nematode size ln(EXT) (ln)?
6.03

Query: mean nematode size ln(EXT) (ln); subject: CNCc1cc(F)ccc1Oc1ccc(Cl)c(Cl)c1
5.24

What mean nematode size ln(EXT) (ln) value was documented for this compound, Clc1cc(Cl)c2c(c1)N=C1CCCCCN1C2 ?
5.8

###

Give measured mean nematode size ln(EXT) (ln) for each item. Keep answers brief.
- Tested on: Caenorhabditis elegans N2
- protocolDescription: mean nematode size ln(EXT) after 48 h, plate-adjusted (DMSO control set to 6) (ln(EXT), control-adjusted); higher = larger nematodes / less growth inhibition
- conditionSummary: 200 µM; exposure time 48 h
Give the figure only, with no unit attached.

Requested read-out mean nematode size ln(EXT) (ln), target or system Caenorhabditis elegans N2, entry Nc1c(Cl)c(Cl)nc(C(=O)O)c1Cl [Picloram]
5.97

Recall the recorded mean nematode size ln(EXT) (ln) for CC[C@H](NC(=O)c1cc(F)ccc1NS(=O)(=O)c1cccc2cccnc12)c1ccccc1 with Caenorhabditis elegans N2 and state it.
3.77

Identify the measured mean nematode size ln(EXT) (ln) of O=S(=O)(O)c1ccc(N=Nc2c(O)ccc3cc(S(=O)(=O)O)ccc23)cc1 [FD&C Yellow no. 6] for Caenorhabditis elegans N2.
5.84

Requested read-out mean nematode size ln(EXT) (ln), target or system Caenorhabditis elegans N2, entry CN1C(=O)CC[C@H]1c1cccnc1 [(-)-Cotinine]
5.65

Record CC1(C)CC(N=C=O)CC(C)(CN=C=O)C1 (mixture of isomers) [Isophorone diisocyanate, mixture of isomers] : what is its mean nematode size ln(EXT) (ln) with Caenorhabditis elegans N2?
4.55

Hi! What's the reported mean nematode size ln(EXT) (ln) for OCC(O)CO [Glycerol] on Caenorhabditis elegans N2?
5.66

What mean nematode size ln(EXT) (ln) appears in the records for this compound with Caenorhabditis elegans N2? S=C([S-])NCCNC(=S)[S-].S=C([S-])NCCNC(=S)[S-].[Mn+2].[Zn+2] [Mancozeb]
5.39

# query: mean nematode size ln(EXT) (ln) | item CC(=O)c1ccccc1 [Acetophenone] | system: Caenorhabditis elegans N2
5.78

Notebook entry, Caenorhabditis elegans N2 assay: mean nematode size ln(EXT) (ln) of ClCCOCCCl [Bis(2-chloroethyl)ether] = ?
5.72

Form field - read-out: mean nematode size ln(EXT) (ln); system: Caenorhabditis elegans N2; submitted item: Nc1ccc(S(=O)(=O)c2ccc(N)cc2)cc1 [4-Aminophenyl sulfone]
5.56

Identify the measured mean nematode size ln(EXT) (ln) of O=c1n(CC2CO2)c(=O)n(CC2CO2)c(=O)n1CC1CO1 (stereo not given) [Triglycidyl isocyanurate] for Caenorhabditis elegans N2.
5.65

Provide the documented mean nematode size ln(EXT) (ln) with Caenorhabditis elegans N2 as the system for CCN(CC)C(=O)c1cccc(C)c1 [Diethyltoluamide]
5.85

Record Cc1[nH]c(=O)n(C(C)(C)C)c(=O)c1Cl [Terbacil] : what is its mean nematode size ln(EXT) (ln) with Caenorhabditis elegans N2?
5.23

Kindly state the measured mean nematode size ln(EXT) (ln) obtained for c1ccc2cc3c(ccc4ccccc43)cc2c1 [Benz[a]anthracene] with Caenorhabditis elegans N2.
3.32

Identify the measured mean nematode size ln(EXT) (ln) of O=Cc1ccco1 [Furfural] for Caenorhabditis elegans N2.
5.82

// map CCCCCCCC(=O)OC [Methyl octanoate] to recorded mean nematode size ln(EXT) (ln) (system: Caenorhabditis elegans N2)
5.52

Return mean nematode size ln(EXT) (ln) measured with Caenorhabditis elegans N2 given this compound: CC/C(=N\OC/C=C/Cl)C1=C(O)CC(C2CCOCC2)CC1=O (stereo not given) [Tepraloxydim]
5.43

# query: mean nematode size ln(EXT) (ln) | item O=C(O)c1ccccc1-n1cc(C(=O)O)c(=O)c2cc(Nc3c(F)cc(F)cc3Cl)c(Cl)cc21 | system: Caenorhabditis elegans N2
5.63

Give mean nematode size ln(EXT) (ln) (Caenorhabditis elegans N2) of the following compound: CN(C)C(=O)NC1(c2ccccc2)CCN(CC[C@@]2(c3ccc(F)c(F)c3)CN(C(=O)c3ccccc3)CCO2)CC1
5.68

Caenorhabditis elegans N2 / mean nematode size ln(EXT) (ln) / Nc1nc(=S)c2[nH]cnc2[nH]1 [6-Thioguanine] : value?
5.72
